# experimentalTarget: Glucocorticoid receptor (Homo sapiens)
# assaySummary: qHTS assay to identify small molecule agonists of the glucocorticoid receptor (GR) signaling pathway (AID 720691)
# conditionDescription: GR-bla HeLa, beta-lactamase reporter ratio, 18 h
Results filed as inconclusive are left out. Calls of active or inactive are those of the source. Calls follow the shape of the dose curve; as a rule, active = well fitted activation curve with a large enough effect in the signal ratio in the repeat runs (not every such curve was filed as active); inconclusive = weak or mixed curves, or effect the other way; inactive = no such curve, though single readings can be large or run the other way; the % refers to the signal ratio. Positions of bridges follow the written chain, without caps; N, C: chain ends. Non-standard residues stand in square brackets, D forms with d. Residues, ends and D or L forms follow the SMILES beside them. Orn = NCCC[C@H](N)C(=O)O; Mpa = O=C(O)CCS

molecule	outcome
CO[C@H]1[C@@H](O)[C@H](N)[C@@H](O[C@H]2O[C@H]([C@H](C)N)CC[C@H]2N)[C@H](O)[C@@H]1N(C)C(=O)CN	inactive
CC(C)NCC(O)COc1ccccc1-n1cccc1 (centres undefined)	inactive
C=CCN1CCCC1CNC(=O)c1cc(S(N)(=O)=O)cc(OC)c1OC (centres undefined)	inactive
CO[C@H]1C[C@H](O[C@@H]2/C(C)=C/C[C@@H]3C[C@@H](C[C@]4(CC[C@H](C)[C@@H](C5CCCCC5)O4)O3)OC(=O)[C@@H]3C=C(C)/C(=N/O)[C@H]4OC/C(=C\C=C\[C@@H]2C)[C@]43O)O[C@@H](C)[C@@H]1O	inactive
C=CC1=C(C)C2=CC3=NC(=C(CC(=O)[O-])C4=NC(=C(C)C4=C([O-])[O-])C=c4[n-]c(c(C)c4CC)=CC1=N2)C(CCC(=O)[O-])C3C.[Cu+2].[Na+].[Na+].[Na+] (centres undefined)	inactive
NCCCC[C@H](NC(=O)[C@@H]1CCCN1C(=O)[C@@H]1CSSC[C@H](N)C(=O)N[C@@H](Cc2ccccc2)C(=O)N[C@@H](Cc2ccccc2)C(=O)N[C@@H](CCC(N)=O)C(=O)N[C@@H](CC(N)=O)C(=O)N1)C(=O)NCC(N)=O	inactive
CCOc1ccc(C[C@H]2NC(=O)CCSSC[C@@H](C(=O)N3CCC[C@H]3C(=O)N[C@@H](CCCN)C(=O)NCC(N)=O)NC(=O)[C@H](CC(N)=O)NC(=O)[C@H]([C@@H](C)O)NC(=O)[C@H]([C@@H](C)CC)NC2=O)cc1 ([Mpa][dY](Et)ITNCP[Orn]G-NH2; disulfide 1-6)	inactive
CCC(C)C(C(=O)OCC[N+](C)(CC)CC)c1ccccc1 (centres undefined)	inactive
Cc1ccccc1OCC(O)CNCCOc1ccc(C(N)=O)cc1 (centres undefined)	inactive
CC(C)CN(C[C@@H](OP(=O)(O)O)[C@H](Cc1ccccc1)NC(=O)O[C@H]1CCOC1)S(=O)(=O)c1ccc(N)cc1	inactive
C[C@H](CCCC(C)(C)O)[C@H]1CC[C@H]2[C@@H]3CC=C4C[C@@H](O)CC[C@]4(C)[C@H]3CC[C@]12C	inactive
Cc1ccccc1CNc1ncnc2c1ncn2[C@@H]1O[C@H](CO)[C@@H](O)[C@H]1O	inactive
CC[N+](C)(C)Cc1ccccc1Br	inactive
C=C[C@]1(C)C[C@@H](OC(=O)CSC(C)(C)CNC(=O)[C@H](N)C(C)C)[C@]2(C)[C@H](C)CC[C@]3(CCC(=O)[C@H]32)[C@@H](C)[C@@H]1O	inactive
